Reference source for all entries: paper PMC5443610

# system tested: BRPF2 BD/H4 (Homo sapiens, UniProt O95696)
# Sequence (O95696 560-666): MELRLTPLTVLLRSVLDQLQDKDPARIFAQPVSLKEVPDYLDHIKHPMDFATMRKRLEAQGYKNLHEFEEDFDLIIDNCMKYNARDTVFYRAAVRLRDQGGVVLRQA
# assay comment: NanoBRET cellular assay
# condition set: HCT116 cells
assay endpoint: pIC50
Interpret pIC50 as the negative base-10 log of the concentration measured in mol/L.

**Q:** Would you mind telling me what pIC50 value was observed for `Cc1cc2c(cc1N1C(=O)c3cccc4cccc(c34)C1=O)n(C)c(=O)n2C` ?
**A:** 6.33
